Values compiled from patent US6156724A.

Listing of entries alongside the reported cytoxicity to lymphocytes LcV, LC50.
# Test system: Balb/c splenocytes (resting lymphocytes)
# Assay name: Lymphocyte viability (LcV) assay
# Assay type: cell-based, murine
# Condition details: unstimulated Balb/c splenocytes, MTT
# Experimental: Forty two (42) didemnin compounds (see Table 1) were evaluated for cytotoxicity to one of the lymphocyte populations in the MLR (i.e., Balb/c splenocytes). […] Assay plates were incubated as in the MLR and then pulsed overnight 75 μL per well MTT-thiazolyl blue solution (150 μg). […] Absorbance at 570 nm was measured. The LcV data were calculated as a percentage of basal metabolic activity, or percent viability, relative to BALB/c control, and an LC50 value was interpolated for each test compound.
Numbered stars: 1 amine (or outer) side, 2 acyl side, 3 side chain; on linkers, the order of the positions; unused ones are H or OH. Bridge positions count the residues as written; N and C are the ends. Square brackets hold non-standard residues; d marks the D form. Peptide text beside a SMILES is read from it. * marks the point of attachment. X1 = CC[C@H](C)[C@@H](N[*:1])[C@@H](O)CC(=O)O[C@H](C(=O)[C@H](C)C(=O)[*:2])C(C)C; NMeY = CN[C@@H](Cc1ccc(O)cc1)C(=O)O; dNMeL = CN[C@H](CC(C)C)C(=O)O; Propionyl = CCC(=O)*
Answer by giving the amount and then stating its unit.

Below, 2 compounds whose answers are already recorded.
| Compound | cytoxicity to lymphocytes LcV, LC50 |
| --- | --- |
| CCC(=O)N1CCC[C@H]1C(=O)N(C)[C@H](CC(C)C)C(=O)N[C@@H]1C(=O)N[C@H]([C@@H](C)CC)[C@@H](O)CC(=O)O[C@@H](C(C)C)C(=O)[C@H](C)C(=O)N[C@@H](CC(C)C)C(=O)N2CCC[C@H]2C(=O)N(C)[C@@H](Cc2ccc(OC)cc2)C(=O)O[C@@H]1C [Compound 32, [Propionyl^9]Didemnin B] (Propionyl-P[dNMeL]T[X1]LP[NMeY](Me); ester 3-C) | 1.98 µM |
| CC[C@H](C)[C@H]1NC(=O)[C@@H](NC(=O)[C@@H](CC(C)C)N(C)C(=O)[C@@H]2CCCN2C(=O)C(C)O)[C@@H](C)OC(=O)[C@H](Cc2ccc(OC)cc2)N(C)C(=O)[C@@H]2CCCN2C(=O)[C@H](CC(C)C)NC(=O)[C@@H](C)C(=O)[C@H](C(C)C)OC(=O)C[C@@H]1O (stereo partly drawn) | 6.34 µM |

Now for the compound whose cytoxicity to lymphocytes LcV, LC50 we want.
Which cytoxicity to lymphocytes LcV, LC50 value is on record for CCC(=O)N(C)[C@H](CC(C)C)C(=O)N[C@@H]1C(=O)N[C@H]([C@@H](C)CC)[C@@H](O)CC(=O)O[C@@H](C(C)C)C(=O)[C@H](C)C(=O)N[C@@H](CC(C)C)C(=O)N2CCC[C@H]2C(=O)N(C)[C@@H](Cc2ccc(OC)cc2)C(=O)O[C@@H]1C [Compound 19, N^α -Propionyldidemnin A] (Propionyl-[dNMeL]T[X1]LP[NMeY](Me); ester 2-C) ?
6.50 µM

---

Listing of entries alongside the reported cytoxicity to lymphocytes LcV, LC50.
# System: Balb/c splenocytes (resting lymphocytes)
# Assay name: Lymphocyte viability (LcV) assay
# Format: cell-based, murine
# Condition details: unstimulated Balb/c splenocytes, MTT; highest concentration 10 μg/mL
Numbered stars: 1 amine (or outer) side, 2 acyl side, 3 side chain; on linkers, the order of the positions; unused ones are H or OH. Bridge positions count the residues as written; N and C are the ends. Square brackets hold non-standard residues; d marks the D form. Peptide text beside a SMILES is read from it. * marks the point of attachment. X1 = CC[C@H](C)[C@@H](N[*:1])[C@@H](O)CC(=O)O[C@H](C(=O)[C@H](C)C(=O)[*:2])C(C)C; NMeY = CN[C@@H](Cc1ccc(O)cc1)C(=O)O; dNMeL = CN[C@H](CC(C)C)C(=O)O; Pyruvoyl = CC(=O)C(=O)*; Propionyl = CCC(=O)*
Please reply with the bare figure in µg/mL and do not write the unit itself.

| Molecule | cytoxicity to lymphocytes LcV, LC50 [µg/mL] |
| --- | --- |
| CC[C@H](C)[C@H]1NC(=O)[C@@H](NC(=O)[C@@H](CC(C)C)N(C)C(=O)[C@@H]2CCCN2C(=O)C(C)=O)[C@@H](C)OC(=O)[C@H](Cc2ccc(OC)cc2)N(C)C(=O)[C@@H]2CCCN2C(=O)[C@H](CC(C)C)NC(=O)[C@@H](C)C(=O)[C@H](C(C)C)OC(=O)C[C@@H]1O [Compound 30, dehydrodidemnin B] (Pyruvoyl-P[dNMeL]T[X1]LP[NMeY](Me); ester 3-C) | 2.90 |

Now for the molecule whose cytoxicity to lymphocytes LcV, LC50 we want.
Hi! What's the reported cytoxicity to lymphocytes LcV, LC50 for CCC(=O)N1CCC[C@H]1C(=O)N(C)[C@H](CC(C)C)C(=O)N[C@@H]1C(=O)N[C@H]([C@@H](C)CC)[C@@H](O)CC(=O)O[C@@H](C(C)C)C(=O)[C@H](C)C(=O)N[C@@H](CC(C)C)C(=O)N2CCC[C@H]2C(=O)N(C)[C@@H](Cc2ccc(OC)cc2)C(=O)O[C@@H]1C [Compound 32, [Propionyl^9]Didemnin B] (Propionyl-P[dNMeL]T[X1]LP[NMeY](Me); ester 3-C) on Balb/c splenocytes (resting lymphocytes)?
2.20
